TESTED_ON: Gag-Pol polyprotein (Human immunodeficiency virus type 1 group M subtype B (isolate HXB2)(HIV-1), UniProt P04585)
ASSAY_PROTOCOL: Inhibition Assay: The inhibition of WT HIV-1 protease was studied using the reaction of the protease (expressed in Eschericia coli) with a peptide substrate [Val-Ser-Gln-Asn-(betanaphthyl)Ala-Pro-Ile-Val (SEQ ID NO:1)]. Compounds were tested using Procedure A. In Procedure A, the test compound was first preincubated with the enzyme in assay buffer (50 mM sodium acetate, pH 5.5, 100 mM NaCl, and 0.1% BSA) for 30 minutes at room temperature. Substrate was then added to 400 micromolar in a total volume of 80 microliters containing 10 picomolar HIV-1 protease and the reaction was incubated for 1 hour at 30° C. The reaction was quenched with the addition of 120 microliters of 10% phosphoric acid. The product formation was determined after separation of product and substrate on a Zorbax Eclipse XDB-C18 column (Agilent Technologies, Santa Clara, Calif.) connected to an Agilent 1100 high performance liquid chromatography system with fluorescence detection (excitation 270 nanometer and emission 330 nanometer).
The entries below come with measured IC50 values attached.
ATTRIBUTE_MEASURED: IC50 (nM)

STRUCTURE_SMILES_STRING: COC(=O)N[C@H](C(=O)NCc1ccc([C@@H](CO)N(CC2CC(F)(F)C2)S(=O)(=O)c2ccc(C(C)=O)cc2)s1)C(c1ccccc1)c1ccccc1
MEASURE_UNIT: nM
ENDPOINT_RESULT: 11.9

STRUCTURE_SMILES_STRING: COC(=O)N[C@H](C(=O)N[C@H](c1ccc([C@@H](CO)N(C(C)C)S(=O)(=O)c2cc(N)cs2)s1)C(F)(F)F)C(c1ccccc1)c1ccccc1
MEASURE_UNIT: nM
ENDPOINT_RESULT: 21.7

STRUCTURE_SMILES_STRING: COC(=O)N[C@H](C(=O)N[C@H](c1ccc([C@@H](CO)N(CCC(C)(C)C)S(=O)(=O)c2cn3ncnc3cn2)s1)C(F)(F)F)C(c1ccccc1)c1ccccc1
MEASURE_UNIT: nM
ENDPOINT_RESULT: 3.59
